The reported measurements were obtained from patent US5780498A.

Measured inhibition at 10 µM of individual entries
Target: ETA receptor (Sus scrofa, UniProt Q29010)
Construct: The plasma membrane of porcine lung; from tissue; host or cells: porcine lung plasma membrane
Test: Endothelin (ET) receptor binding assay, ETA ([125I]ET-1 in the presence of 1 nM nonlabeled ET-3, porcine lung plasma membrane)
Conditions: 10^-5 M of the test compound; specific ETA binding
Please answer using the number first and the unit second.

Some molecules with recorded inhibition at 10 µM:
>  <Structure Smiles String>
Cc1cc(C)cc(C(=O)N(C)[C@H](Cc2ccc(-c3ccccc3)cc2)C(=O)N(C)[C@@H](Cc2c[nH]c3ccccc23)C(=O)O)c1

>  <Quantity Measured>
inhibition at 10 µM

>  <Measured>
36%

$$$$
>  <Structure Smiles String>
COc1ccc(C[C@H](C(=O)N[C@@H](Cc2c[nH]c3ccccc23)C(=O)O)N(C)C(=O)c2cc(C)cc(C)c2)cc1

>  <Quantity Measured>
inhibition at 10 µM

>  <Measured>
47%

$$$$

Exercise: Give inhibition at 10 µM for the following molecule: `Cc1cc(C)cc(C(=O)N(C)[C@H](Cc2ccc(-c3ccccc3)cc2)C(=O)N[C@@H](Cc2c[nH]c3ccccc23)c2nn[nH]n2)c1`
Solution: 74%

Exercise: Give inhibition at 10 µM for the following molecule: `Cc1cc(C)cc(C(=O)N(C)[C@H](Cc2ccccc2)C(=O)N[C@@H](Cc2c[nH]c3ccccc23)C(=O)O)c1`
Solution: 37%

====

Molecular target: ETA receptor (Sus scrofa, UniProt Q29010)
Construct: The plasma membrane of porcine lung; from tissue; host or cells: porcine lung plasma membrane
Sequence (Q29010 21-427): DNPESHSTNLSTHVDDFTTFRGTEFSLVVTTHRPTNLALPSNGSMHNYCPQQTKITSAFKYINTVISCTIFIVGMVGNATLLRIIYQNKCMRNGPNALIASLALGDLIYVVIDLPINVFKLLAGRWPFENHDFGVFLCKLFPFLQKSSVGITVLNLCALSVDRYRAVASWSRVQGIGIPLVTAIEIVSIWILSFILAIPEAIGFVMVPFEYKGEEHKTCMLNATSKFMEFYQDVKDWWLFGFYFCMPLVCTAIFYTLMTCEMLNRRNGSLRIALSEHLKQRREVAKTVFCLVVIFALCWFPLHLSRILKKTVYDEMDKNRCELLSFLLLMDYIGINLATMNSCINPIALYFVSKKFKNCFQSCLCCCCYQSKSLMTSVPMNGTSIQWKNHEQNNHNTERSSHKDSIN
Test: Endothelin (ET) receptor binding assay, ETA ([125I]ET-1 in the presence of 1 nM nonlabeled ET-3, porcine lung plasma membrane)
Conditions: 10^-5 M of the test compound; specific ETA binding
Rule: inhibition at 10 µM of 80% or more gives true (1); anything lower gives false (0).

Solved cases (5 shown):
>  <Molecule>
Cc1cc(C)cc(C(=O)N(C)[C@H](Cc2ccc(-c3ccsc3)cc2)C(=O)N[C@@H](Cc2c[nH]c3ccccc23)C(=O)O)c1 [Example 91]

>  <Class Label>
true (1)

$$$$
>  <Molecule>
Cc1cc(C)cc(C(=O)N(C)C(C(=O)N[C@@H](Cc2c[nH]c3ccccc23)C(=O)O)C(c2ccccc2)c2ccccc2)c1 (stereo partly drawn) [Example 57]

>  <Class Label>
false (0)

$$$$
>  <Molecule>
Cc1cc(C)cc(C(=O)N(C)[C@H](Cc2ccc(-c3ccccc3)cc2)C(=O)NC(Cc2csc3ccccc23)C(=O)O)c1 (stereo partly drawn) [Example 7]

>  <Class Label>
false (0)

$$$$
>  <Molecule>
Cc1cc(C)cc(C(=O)N(C)[C@H](Cc2ccc(-c3ccccc3)cc2)C(=O)N[C@@H](Cc2c[nH]c3ccccc23)C(=O)O)c1 [Example 55]

>  <Class Label>
true (1)

$$$$
>  <Molecule>
Cc1cc(C)cc(C(=O)N(C)[C@H](Cc2ccc(-c3ccno3)cc2)C(=O)N[C@@H](Cc2c[nH]c3ccccc23)C(=O)O)c1 [Example 95]

>  <Class Label>
true (1)

$$$$

Switching to the query record.
Exercise: Assess whether reported inhibition at 10 µM for Cc1cc(C)cc(C(=O)N(C)[C@H](Cc2ccc(-c3ccccc3)cc2)C(=O)CC(Cc2c[nH]c3ccccc23)C(=O)O)c1 (stereo partly drawn) [Example 84] sits at 80% or higher.
Solution: false (0)

====

Measured pKi of individual entries
Target: ETA receptor (Sus scrofa, UniProt Q29010)
Construct: The plasma membrane of porcine lung
Sequence (Q29010 21-427): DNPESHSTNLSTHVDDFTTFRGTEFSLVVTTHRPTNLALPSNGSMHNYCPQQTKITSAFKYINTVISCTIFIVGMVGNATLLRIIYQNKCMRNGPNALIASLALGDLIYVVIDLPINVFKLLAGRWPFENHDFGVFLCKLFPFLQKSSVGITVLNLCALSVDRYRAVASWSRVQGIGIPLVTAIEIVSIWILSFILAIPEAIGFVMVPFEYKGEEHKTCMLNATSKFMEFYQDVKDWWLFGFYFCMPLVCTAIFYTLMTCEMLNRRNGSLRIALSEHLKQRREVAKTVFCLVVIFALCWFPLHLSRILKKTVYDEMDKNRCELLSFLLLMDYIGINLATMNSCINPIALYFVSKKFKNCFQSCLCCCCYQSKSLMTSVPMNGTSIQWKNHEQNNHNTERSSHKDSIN
Test: Endothelin (ET) receptor binding assay, ETA ([125I]ET-1 in the presence of 1 nM nonlabeled ET-3, porcine lung plasma membrane)
Settings: from inhibition curves for the binding of [125I]ETs
Keep in mind that pKi stands for -log10 of concentration in molar terms.

>  <Compound>
Cc1cc(C)cc(C(=O)N(C)[C@H](Cc2ccc(-c3ccno3)cc2)C(=O)N[C@@H](Cc2c[nH]c3ccccc23)C(=O)O)c1 [Example 95]

>  <Target Under Test>
ETA receptor (Sus scrofa, UniProt Q29010)

>  <pKi>
7.35

$$$$

Exercise: Give pKi for the following compound: Cc1cc(C)cc(C(=O)N(C)[C@H](Cc2ccc(-c3cccs3)cc2)C(=O)N[C@@H](Cc2c[nH]c3ccccc23)C(=O)O)c1 [Example 93]
Solution: 7.06

Exercise: Give pKi for the following compound: Cc1cc(C)cc(C(=O)N(C)[C@H](Cc2ccc(-c3ccsc3)cc2)C(=O)N[C@@H](Cc2c[nH]c3ccccc23)C(=O)O)c1 [Example 91]
Solution: 7.27

Exercise: Give pKi for the following compound: Cc1cc(C)cc(C(=O)N(C)[C@H](Cc2ccc(-c3ccccc3)cc2)C(=O)N[C@@H](Cc2c[nH]c3ccccc23)C(=O)O)c1 [Example 55]
Solution: 6.36

====

Biological target: ETB receptor (Sus scrofa, UniProt P35463)
Construct: The plasma membrane of porcine lung; from tissue; host or cells: porcine lung plasma membrane
Assay: Endothelin (ET) receptor binding assay, ETB ([125I]ET-3 alone, porcine lung plasma membrane)
Settings: from inhibition curves for the binding of [125I]ETs
Measured Ki of individual entries
Respond with the bare value in nM.

Some compounds with recorded Ki:
>  <Structure Smiles String>
Cc1cc(C)cc(C(=O)N(C)[C@H](Cc2ccc(-c3ccno3)cc2)C(=O)N[C@@H](Cc2c[nH]c3ccccc23)C(=O)O)c1

>  <Measurement Units>
nM

>  <Measured>
0.21

$$$$
>  <Structure Smiles String>
Cc1cc(C)cc(C(=O)N(C)[C@H](Cc2ccc(-c3ccccc3)cc2)C(=O)N[C@@H](Cc2c[nH]c3ccccc23)C(=O)O)c1

>  <Measurement Units>
nM

>  <Measured>
1

$$$$
>  <Structure Smiles String>
Cc1cc(C)cc(C(=O)N(C)[C@H](Cc2ccc(-c3ccsc3)cc2)C(=O)N[C@@H](Cc2c[nH]c3ccccc23)C(=O)O)c1

>  <Measurement Units>
nM

>  <Measured>
0.23

$$$$

Next, consider the following compound.
Exercise: Give Ki for the following compound: `Cc1cc(C)cc(C(=O)N(C)[C@H](Cc2ccc(-c3cccs3)cc2)C(=O)N[C@@H](Cc2c[nH]c3ccccc23)C(=O)O)c1`
Solution: 0.6

====

Target: ETB receptor (Sus scrofa)
Construct: The plasma membrane of porcine lung; from tissue; host or cells: porcine lung plasma membrane
Sequence (P35463 27-443): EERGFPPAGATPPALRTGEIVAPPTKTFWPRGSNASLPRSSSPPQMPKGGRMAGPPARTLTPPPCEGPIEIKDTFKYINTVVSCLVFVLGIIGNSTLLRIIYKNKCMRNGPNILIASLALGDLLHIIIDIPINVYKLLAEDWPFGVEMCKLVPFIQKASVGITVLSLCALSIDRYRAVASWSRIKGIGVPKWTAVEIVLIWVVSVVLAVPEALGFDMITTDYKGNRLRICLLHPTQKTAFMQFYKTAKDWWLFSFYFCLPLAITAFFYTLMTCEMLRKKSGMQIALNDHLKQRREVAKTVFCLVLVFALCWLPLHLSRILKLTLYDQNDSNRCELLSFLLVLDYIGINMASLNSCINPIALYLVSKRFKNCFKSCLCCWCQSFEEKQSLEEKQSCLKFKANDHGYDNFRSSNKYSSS
Assay: Endothelin (ET) receptor binding assay, ETB ([125I]ET-3 alone, porcine lung plasma membrane)
Conditions: 10^-7 M of the test compound; specific ETB binding
Quantity Measured: inhibition at 0.1 µM (%)
Respond with the bare value in %.

Some molecules with recorded inhibition at 0.1 µM:
>  <Molecule>
Cc1cc(C)cc(C(=O)N(C)[C@H](Cc2ccc(-c3ccccc3)cc2)C(=O)N[C@@H](Cc2c[nH]c3ccccc23)c2nn[nH]n2)c1

>  <Measurement Units>
%

>  <inhibition at 0.1 µM>
93

$$$$
>  <Molecule>
Cc1cc(C)cc(C(=O)N(C)[C@H](Cc2ccc(-c3ccccc3)cc2)C(=O)N[C@@H](Cc2c[nH]c3ccccc23)C(=O)O)c1

>  <Measurement Units>
%

>  <inhibition at 0.1 µM>
100

$$$$
>  <Molecule>
Cc1cc(C)cc(C(=O)N(C)[C@H](Cc2ccc(-c3ccccc3)cc2)C(=O)N(C)[C@@H](Cc2c[nH]c3ccccc23)C(=O)O)c1

>  <Measurement Units>
%

>  <inhibition at 0.1 µM>
91

$$$$

Exercise: Give inhibition at 0.1 µM for the following molecule: `Cc1cc(C)cc(C(=O)N(C)[C@H](Cc2ccc(-c3ccsc3)cc2)C(=O)N[C@@H](Cc2c[nH]c3ccccc23)C(=O)O)c1`
Solution: 100

Exercise: Give inhibition at 0.1 µM for the following molecule: `Cc1cc(C)cc(C(=O)N(C)[C@H](Cc2ccc(-c3ccno3)cc2)C(=O)N[C@@H](Cc2c[nH]c3ccccc23)C(=O)O)c1`
Solution: 98

Exercise: Give inhibition at 0.1 µM for the following molecule: Cc1cc(C)cc(C(=O)N(C)[C@H](Cc2ccc(-c3ccccc3)cc2)C(=O)CC(Cc2c[nH]c3ccccc23)C(=O)O)c1 (stereo partly shown)
Solution: 70

Exercise: Give inhibition at 0.1 µM for the following molecule: `Cc1cc(C)cc(C(=O)N(C)[C@H](Cc2ccccc2)C(=O)N[C@@H](Cc2c[nH]c3ccccc23)C(=O)O)c1`
Solution: 55
